target: recombinant DYRK1A kinase (Homo sapiens (Human), UniProt Q13627); assay: DYRK1A kinase assay (Ser/Thr 18 peptide Z-lyte, FRET); conditions: DYRK1A kinase, 30 μM ATP, one hour; method calls values IC50
TEST READOUT: EC50 (nM)

Here are 6 molecules together with their reported answers.
molecule="Cc1nnc(-c2ccc3cnc(NC(=O)c4cnn(C5CCN(C)CC5)c4)cc3c2)s1 [Compound 65]" test_readout=EC50 result_unit=nM val=6
molecule="Cc1nnc(-c2ccc3cnc(NC(=O)c4coc(C5CCN(C)CC5)n4)cc3c2)s1 [Compound 69]" test_readout=EC50 result_unit=nM val=527
molecule="Cn1cc(-c2ccc3cnc(NC(=O)c4coc(C5CCNCC5)n4)cc3c2)cn1 [Compound 19]" test_readout=EC50 result_unit=nM val=12
molecule="Cn1cncc1-c1ccc2cnc(NC(=O)c3cnn(C4CC4)c3)cc2c1 [Compound 44]" test_readout=EC50 result_unit=nM val=1
molecule="Cc1ncc(-c2ccc3cnc(NC(=O)c4cnn(C)c4)cc3c2)n1C [Compound 60]" test_readout=EC50 result_unit=nM val=4
molecule="Cn1cc(-c2ccc3cnc(NC(=O)c4cnn(C5CCNCC5)c4)cc3c2)cn1 [Compound 2]" test_readout=EC50 result_unit=nM val=2

[P] CC(C)N1CCC(n2cc(C(=O)Nc3cc4cc(-c5cn(C)nn5)ccc4cn3)nn2)CC1 [Compound 35]
[Q] Cn1ccc(C(=O)Nc2cc3cc(-c4cncn4C)ccc3cn2)n1 [Compound 46]
Task: Given P and given Q , which shows the smaller recorded EC50? Response format: the label of the selected entry.
Output: Q
(Q: 5 nM, P: 10 nM)

---

tested on: Tau phosphorylation at Ser396 (pSer396); assay: Tau phosphorylation (pSer396) assay in SH-SY5Y cells; type: cell-based, human; conditions: SH-SY5Y cells, overnight (16-18 h), pSer396 Tau ELISA; read-out: EC50
TEST READOUT: EC50

Tested system Tau phosphorylation at Ser396 (pSer396); EC50 recorded for CCN1/C(=C/C(C)=O)Sc2ccc(O)cc21 [Indy, reference compound] was > 10 µM

---

biological target: recombinant GSK3β kinase (Homo sapiens (Human)); experiment: GSK3β kinase assay (Ser/Thr 09 peptide Z-lyte, FRET); assay type: biochemical
Sequence (P49841 whole entry): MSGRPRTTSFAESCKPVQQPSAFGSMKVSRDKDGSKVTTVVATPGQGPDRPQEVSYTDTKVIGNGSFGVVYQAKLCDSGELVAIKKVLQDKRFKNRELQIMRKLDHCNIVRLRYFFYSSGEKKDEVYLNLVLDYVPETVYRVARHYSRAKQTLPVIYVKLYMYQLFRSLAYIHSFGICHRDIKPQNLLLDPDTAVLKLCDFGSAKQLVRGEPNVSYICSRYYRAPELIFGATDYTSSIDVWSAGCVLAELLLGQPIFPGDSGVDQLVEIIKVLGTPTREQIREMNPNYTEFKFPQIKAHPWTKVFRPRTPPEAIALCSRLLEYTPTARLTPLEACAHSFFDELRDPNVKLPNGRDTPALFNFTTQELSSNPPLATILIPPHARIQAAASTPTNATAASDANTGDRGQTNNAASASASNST
TEST READOUT: EC50 (µM)

[P] [2H]c1nc(NC(=O)c2cnn(C(C)C)c2)cc2cc(-c3cncn3C)ccc12
[Q] [2H]C([2H])([2H])n1cc(-c2ccc3cnc(NC(=O)c4coc(C5CCNCC5)n4)cc3c2)cn1
[R] [2H]C([2H])([2H])n1cc(-c2ccc3cnc(NC(=O)c4cnn(C5CCN(C)CC5)c4)cc3c2)cn1
Task: Arrange these 3 compounds in increasing order of EC50. List labels; respect the requested ordering.
Output: Q, R, P

---

target: recombinant DYRK1A kinase (Homo sapiens (Human), UniProt Q13627); experiment: DYRK1A kinase assay (Ser/Thr 18 peptide Z-lyte, FRET); settings: DYRK1A kinase, 30 μM ATP, one hour; method calls values IC50
pEC50: −log10 of the molar value.
TEST READOUT: pEC50

Here are 5 compounds together with their reported answers.
smi=CC(C)Cn1cc(C(=O)Nc2cc3cc(-c4cncn4C)ccc3cn2)cn1 test_readout=pEC50 val=9.00
smi=CC(C)n1cc(C(=O)Nc2cc3cc(-c4cncn4C)ccc3cn2)cn1 test_readout=pEC50 val=7.64
smi=CN1CCC(c2nc(C(=O)Nc3cc4cc(-c5cn(C)nn5)ccc4cn3)co2)CC1 test_readout=pEC50 val=7.62
smi=Cn1cc(-c2ccc3cnc(NC(=O)c4cn(C5CCNCC5)nn4)cc3c2)cn1 test_readout=pEC50 val=8.15
smi=Cn1cc(-c2ccc3cnc(NC(=O)c4cnn(C5CCN(CCF)CC5)c4)cc3c2)cn1 test_readout=pEC50 val=8.52

[A] Cn1cc(CC(=O)Nc2cc3cc(-c4cncn4C)ccc3cn2)cn1
[B] Cc1nnc(-c2ccc3cnc(NC(=O)c4coc(C5CCNCC5)n4)cc3c2)s1
Task: pEC50 comparison. Which is larger, A or B ? Response format: the label of the selected entry.
Output: A
(A: 8.52, B: 7.13)

---

molecular target: recombinant DYRK1A kinase (Homo sapiens (Human)); assay: DYRK1A kinase assay (Ser/Thr 18 peptide Z-lyte, FRET); settings: DYRK1A kinase, 30 μM ATP, one hour; method calls values IC50
TEST READOUT: EC50 (nM)

smi=Cn1cc(-c2ccc3cnc(NC(=O)c4cn(C5CCN(CCF)CC5)nn4)cc3c2)cn1 test_readout=EC50 val=5
smi=Cc1nnc(C(=O)Nc2cc3cc(-c4cncn4C)ccc3cn2)o1 test_readout=EC50 val=9
smi=CN1CCC(n2cc(C(=O)Nc3cc4cc(-c5cn(C)nn5)ccc4cn3)cn2)CC1 test_readout=EC50 val=3
smi=CC(C)N1CCC(n2cc(C(=O)Nc3cc4cc(-c5cnn(C)c5)ccc4cn3)nn2)CC1 test_readout=EC50 val=6
smi=Cc1ncc(C(=O)Nc2cc3cc(-c4cnc(C)n4C)ccc3cn2)s1 test_readout=EC50 val=2

[1] Cc1ncc(-c2ccc3cnc(NC(=O)c4cnn(C5CCN(C)CC5)c4)cc3c2)o1
[2] Cc1coc(C(=O)Nc2cc3cc(-c4cncn4C)ccc3cn2)n1
[3] CCN1CCC(n2cc(C(=O)Nc3cc4cc(-c5cn(C)nn5)ccc4cn3)cn2)CC1
Task: List items by EC50 in falling order. List labels; respect the requested ordering.
Output: 2, 3, 1

---

target: recombinant DYRK1A kinase (Homo sapiens (Human)); assay: DYRK1A kinase assay (Ser/Thr 18 peptide Z-lyte, FRET)
pEC50: −log10 of the molar value.
TEST READOUT: pEC50

Here are 2 compounds together with their reported answers.
compound="[2H]C([2H])([2H])n1cc(-c2ccc3cnc(NC(=O)c4cnn(C5CCN(C)CC5)c4)cc3c2)cn1 [Compound 5]" val=8.70
compound="[2H]C([2H])([2H])n1cc(-c2ccc3cnc(NC(=O)c4cnn(C5CCNCC5)c4)cc3c2)cn1 [Compound 3]" val=8.52

[A] [2H]c1nc(NC(=O)c2cnn(C(C)C)c2)cc2cc(-c3cncn3C)ccc12 [Compound 43]
[B] [2H]C([2H])([2H])n1cc(-c2ccc3cnc(NC(=O)c4coc(C5CCNCC5)n4)cc3c2)cn1 [Compound 16]
Task: pEC50 comparison. Which is larger, A or B ? Response format: the label of the selected entry.
Output: A
(A: 8.70, B: 7.80)

---

tested on: primary human fibroblasts derived from IPF patients (LL29 cells), α-smooth muscle actin; assay: Inhibition of fibrotic process: αSMA in TGF-β1 treated LL29 fibroblasts; format: cell-based; conditions: Homo sapiens, Fibroblast, 96 h; LL29 cells, TGF-β1 20 ng/mL, 4 days, % cells positive for αSMA
Reported EC50 is given for each of the following molecules.
Return type: number; implicit unit nM.

molecule="Cc1ncc(C(=O)Nc2cc3cc(-c4cnn(C5CCN(C)CC5)c4)ccc3cn2)s1 [Compound 28]" test_readout=EC50 result_unit=nM val=381

Kindly consider the entry below.
Tested system primary human fibroblasts derived from IPF patients (LL29 cells), α-smooth muscle actin; EC50 recorded for CC(C)N1CCC(n2cc(C(=O)Nc3cc4cc(-c5cnn(C)c5)ccc4cn3)nn2)CC1 [Compound 14] was 410

---

System: primary human fibroblasts derived from IPF patients (LL29 cells), α-smooth muscle actin
Assay: Inhibition of fibrotic process: αSMA in TGF-β1 treated LL29 fibroblasts
Assay type: cell-based
Settings: Homo sapiens, Fibroblast, 96 h; LL29 cells, TGF-β1 20 ng/mL, 4 days, % cells positive for αSMA
Protocol: Representative compounds were screened using primary human fibroblasts (derived from IPF patients) treated with TGF-β1 to determine their ability to inhibit the fibrotic process. LL29 cells were plated at 1,500 cells/well in 70 μL/well F12 medium supplemented with 1% Fetal Bovine Serum. […] Wells treated with TGF-β1 and containing DMSO were used as positive control, and cells with only DMSO were negative control. […]
TEST READOUT: pEC50
In textbook form, pEC50 equals minus log to base ten of the concentration in mol/L.

compound="CC(C)n1cnc(C(=O)Nc2cc3cc(-c4cncn4C)ccc3cn2)c1 [Compound 49]" val=7.07
compound="CC(C)OC(=O)N1CCC(n2cc(C(=O)Nc3cc4cc(-c5cnn(C)c5)ccc4cn3)cn2)CC1 [Compound 10]" val=7.21
compound="CC(C)n1cc(C(=O)Nc2cc3cc(-c4cncn4C(C)C)ccc3cn2)cn1 [Compound 70]" val=6.60
compound="Cc1coc(C(=O)Nc2cc3cc(-c4cncn4C)ccc3cn2)n1 [Compound 55]" val=5.42
compound="Cn1cc(-c2ccc3cnc(NC(=O)c4csc(C5CCN(CCF)CC5)n4)cc3c2)cn1 [Compound 27]" val=5.60

response.value for Cn1cc(-c2ccc3cnc(NC(=O)c4cnn(C5CCNCC5)c4)cc3c2)nn1 [Compound 29] (field: pEC50) = 6.87

response.value for Cn1cc(-c2ccc3cnc(NC(=O)c4cn(C5CCNCC5)nn4)cc3c2)cn1 [Compound 11] (field: pEC50) = 6.22

response.value for Cn1cc(-c2ccc3cnc(NC(=O)c4cnn(C5CCN(CCF)CC5)c4)cc3c2)cn1 [Compound 7] (field: pEC50) = 7.33

response.value for CCn1cc(C(=O)Nc2cc3cc(-c4cncn4C)ccc3cn2)cn1 [Compound 41] (field: pEC50) = 6.91

response.value for Cc1nnc(-c2ccc3cnc(NC(=O)c4cnn(C5CCN(C(C)C)CC5)c4)cc3c2)s1 [Compound 66] (field: pEC50) = 6.77

response.value for CC(C)N1CCC(n2cc(C(=O)Nc3cc4cc(-c5cnn(C)c5)ccc4cn3)cn2)CC1 [Compound 8] (field: pEC50) = 7.14

response.value for Cn1cncc1-c1ccc2cnc(NC(=O)c3cn(C4CCOCC4)cn3)cc2c1 [Compound 50] (field: pEC50) = 5.93

response.value for Cc1nnc(-c2ccc3cnc(NC(=O)c4cnn(C5CCN(C)CC5)c4)cc3c2)s1 [Compound 65] (field: pEC50) = 6.66

Data credit: patent US10744128B2
